system: panel of HIV-1 ENV-pseudoviruses (subtype A, A/D, A2/D, A/E, A/G, B, C and D); assay: microbe, parasite or virus in culture; type: cell-based; conditions: read-out: IC50 (μM) ± S.D.; subtype A/D, NIH # 11903, ENV QA790.2041.ENV.C8
ENDPOINT_LABEL: IC50

- Cc1nc(C(NC(=O)c2ccc(-c3ccc(Cl)cc3)[nH]2)C2CCCCN2)sc1CO (single isomer, unassigned): 1.6 µM

###

system: panel of HIV-1 ENV-pseudoviruses (subtype A, A/D, A2/D, A/E, A/G, B, C and D); experiment: microbe, parasite or virus in culture; type: cell-based; details: read-out: IC50 (μM) ± S.D.; subtype B, NIH # 11022, ENV PVO, clone 4
ENDPOINT_LABEL: IC50 (µM)

* Cc1nc(C(NC(=O)c2ccc(-c3ccc(Cl)cc3)[nH]2)C2CCCCN2)sc1CO (single isomer, unassigned) | 1.1

###

system: panel of HIV-1 ENV-pseudoviruses (subtype A, A/D, A2/D, A/E, A/G, B, C and D); assay: microbe, parasite or virus in culture; assay type: cell-based; settings: subtype A, NIH # 11889, ENV QB726.70M.ENV.B3; read-out: IC50 (μM) ± S.D.
ENDPOINT_LABEL: IC50 (µM)

* Cc1nc(C(NC(=O)c2ccc(-c3ccc(Cl)cc3)[nH]2)C2CCCCN2)sc1CO (single isomer, unassigned) [Compound 19] | 2.4

###

test system: panel of HIV-1 ENV-pseudoviruses (subtype A, A/D, A2/D, A/E, A/G, B, C and D); assay: microbe, parasite or virus in culture; format: cell-based; conditions: Human immunodeficiency virus 1, TZM-bl, read-out: IC50 (μM) ± S.D., subtype B, NIH # 11035, ENV pREJO4541 clone 67
ENDPOINT_LABEL: IC50 (µM)

- Cc1nc(C(NC(=O)c2ccc(-c3ccc(Cl)cc3)[nH]2)C2CCCCN2)sc1CO (single isomer, unassigned) [Compound 17]: 1.6
- Cc1nc(C(NC(=O)c2ccc(-c3ccc(Cl)cc3)[nH]2)C2CCCCN2)sc1CO (centres unmarked) [Compound 15]: 1.8

###

tested on: panel of HIV-1 ENV-pseudoviruses (subtype A, A/D, A2/D, A/E, A/G, B, C and D); assay: microbe, parasite or virus in culture; assay type: cell-based; details: Human immunodeficiency virus 1, TZM-bl, read-out: IC50 (μM) ± S.D., subtype A/D, NIH # 11903, ENV QA790.2041.ENV.C8
ENDPOINT_LABEL: IC50 (µM)

- Cc1nc(C(NC(=O)c2ccc(-c3ccc(Cl)cc3)[nH]2)C2CCCCN2)sc1CO (single isomer, unassigned): 1.6

###

Below: a set of entries, each annotated with reported CC50 at 3 days.
test: Cytotoxicity in TZM-bl cells (XTT); format: cell-based; settings: human
ENDPOINT_LABEL: CC50 at 3 days

- Cc1nc(C(CN)NC(=O)c2cc3ccccc3[nH]2)sc1CO (centres unmarked): > 60 µM
- Cc1nc(C(CN)NC(=O)c2cc3cc(Cl)ccc3[nH]2)sc1CO (centres unmarked): ~47 µM

###

test system: TZM-bl cells; experiment: Cytotoxicity in TZM-bl cells (XTT); assay type: cell-based; conditions: 3 days
Below: a set of entries, each annotated with reported CC50.
ENDPOINT_LABEL: CC50

- Cc1nc(C(CN)NC(=O)c2cc3cc(Cl)ccc3[nH]2)sc1CO (centres unmarked) [Compound 61]: > 55 µM
- Cc1nc(C(CN)NC(=O)c2cc3ccccc3[nH]2)sc1CO (centres unmarked) [Compound 63]: > 60 µM
